Tested on: TK-10 renal
Assay: NCI tumour cell line growth inhibition, 48 h
REPORTED_METRIC: TGI

N#CC(C(=O)CCC(=O)Nc1cccc(C(F)(F)F)c1)c1ccccc1 (stereo not drawn): > 100 µM

For each of the compounds below, state TGI.
1. C[C@]12CCc3nonc3C1CC[C@@H]1C2CC[C@@]2(C)C1CC[C@@H]2O (stereo partly drawn)
2. CCOC(=O)[C@@]1(C(C)=O)CC(C)=C(C)C[S@]1=O

Response:
> 100 µM
> 100 µM

---

Exercise: state measured GI50 for each of the molecules provided.
Tested on: UACC-62 melanoma
Assay: NCI tumour cell line growth inhibition, 48 h

// worked examples, GI50 included
COc1ccc2c(c1)C(=O)c1c-2c(N2CCN(C(=O)CCNCCNCCN)CC2)nc2ccccc12: 22.3 µM
CN[C@@H](Cc1cccc2ccccc12)C(=O)N[C@@H](CC(C)C)B(O)O: 0.017 µM
CCOC(=O)Nc1ccc2c(c1)C(=O)N(CC)c1ccccc1O2: 0.101 µM
CC1=C2[C@@H](CC1)[C@]1(C)O[C@@](C(C)C)(C[C@H]1OC(=O)CO)[C@H]2OC(=O)CCCc1ccccc1: 3.42 µM
CCCS(=O)(=O)Nc1cccc(Nc2ncnc3cc(NC(=O)CCl)ccc23)c1Cl: 0.871 µM

For each of the items listed, what is its GI50?
1. CC[C@]12C=CCN3CC[C@@]4(c5ccc(OC)cc5N(C)[C@H]4[C@@](O)(C(=O)OC)[C@@H]1OC(=O)CCC(=O)O[C@H]1CC[C@H]4[C@@H]5CC[C@H]6CC(=O)CC[C@]6(C)[C@H]5CC[C@]14C)[C@@H]32
2. FC(F)(F)c1cc(NC(=S)N2c3ccccc3-n3cccc3C2c2cccnc2)cc(C(F)(F)F)c1 (configuration not stated)

Response:
["3.25 µM", "11.7 µM"]

---

System: PC-3 prostate
Experiment: NCI tumour cell line growth inhibition, 48 h; in the data active = GI50 below about 0.43 µM; inactive = the rest
Pick one and only one: active, inactive

Please review the following examples before continuing.
COc1ccc(CNCCCN2C(=O)c3ccc4c5c(ccc(c35)C2=O)C(=O)N(CCCNCc2ccc(OC)c(OC)c2OC)C4=O)c(OC)c1OC: active
S=C1SCN(Cc2ccccc2)CN1Cc1ccccc1: inactive
CCCCC(OC(=O)c1ccc(N)cc1)C(=O)Nc1nc(CC(=O)OCC)cs1 (stereo not given): inactive
COc1cc2c(/C=C3/C(=O)Nc4ccc(O)cc43)c(Cl)n(Cc3cc(OC)c(OC)c(OC)c3)c2cc1C: inactive

Query: Identify the outcome logged in this assay for the compound shown: CC1(C)N=c2cc3c(cc2N1c1ccc(Cl)cc1)=Nc1ccccc1N3c1ccc(Cl)cc1
Response: inactive

---

For each record, write down the corresponding TGI.
System: HOP-92 NSCLC
Assay: NCI tumour cell line growth inhibition, 48 h

COC(=O)CCC(=O)c1ccc2c(c1)CC1(C2)Cc2ccc(C(=O)CCC(=O)OC)cc2C1: > 100 µM

Provide reported TGI for each item, in the same order as listed.
1. COc1cccc(C=O)c1[O-].COc1cccc(C=O)c1[O-].[Zn+2]
2. CC(=O)Nc1ccc(OC(C)=O)cc1
3. [C-]#[N+]C(=C\c1ccc(O)cc1)/C(=C/c1ccc(O)cc1)[N+]#[C-]
4. CC(C)(CCl)NC(=O)c1cccc(C(=O)NC(C)(C)CCl)n1

Response:
1. 83.6 µM
2. 1.81 µM
3. > 100 µM
4. > 100 µM

Field: TGI. Fill in for each record below.
1. CSc1nc(-c2ccccc2)nc(C(C#N)C#N)n1
2. O=C(O)CN1C(=O)CN=C(c2ccccn2)c2cc(Cl)ccc21
3. COc1cc(/C=C2\NC(=O)C3Cc4c(OC)c(C)c(OC)c(OC)c4C2N3C)c(OC)c(C)c1OC (centres undefined)

Response:
> 100 µM
> 100 µM
> 100 µM

Return reported TGI values for all items listed beneath this line.
1. COc1ccccc1/C=N/Nc1nnc2c3ccccc3c3ncccc3c2n1
2. CCn1c(SCC(=O)Nc2cc(C(F)(F)F)ccc2Cl)nc2ccccc2c1=O
3. CC1(C)CCc2c(c(N=Nc3ccccc3F)c3ccccc3c2O)O1
4. COc1ccc(C(=O)c2nc3ccccc3nc2N2CCN(c3ccccc3)CC2)cc1OC
5. COc1c(C)c(OC)c(C(=O)CC(C)C)c(OC)c1C
6. Cc1cn(C2CC(N=[N+]=[N-])C(CO)O2)c(=O)n(CCCCBr)c1=O (centres undefined)

Response:
52.8 µM
41.4 µM
> 100 µM
> 100 µM
> 100 µM
> 100 µM

Give TGI for all compounds that follow.
1. COc1cc2c(cc1O)c(=O)n(CCN(C)C)c1c3cc4c(cc3ncc21)OCO4
2. Cc1nc(C)c(N2CCN(S(N)(=O)=O)CC2)c(=O)[nH]1
3. O=C1OC(c2ccc(Cl)cc2)=N/C1=C\c1ccccc1
4. CC12C3CC4C5CC(C(C53)[C@@H]1NCc1ccccc1)C42 (some centres undefined)
5. [N-]=[N+]=Nc1c(-c2ccccc2)c(=O)n(-c2ccccc2)c2ccccc12

Response:
1: 0.455 µM; 2: > 100 µM; 3: > 100 µM; 4: > 100 µM; 5: > 100 µM

Source: PubChem BioAssay (NCI)
